Data credit: patent US10562947B2

Target: GRK7(h) (Homo sapiens)
Construct: purchased Millipore
Sequence (Q8WTQ7 1-553): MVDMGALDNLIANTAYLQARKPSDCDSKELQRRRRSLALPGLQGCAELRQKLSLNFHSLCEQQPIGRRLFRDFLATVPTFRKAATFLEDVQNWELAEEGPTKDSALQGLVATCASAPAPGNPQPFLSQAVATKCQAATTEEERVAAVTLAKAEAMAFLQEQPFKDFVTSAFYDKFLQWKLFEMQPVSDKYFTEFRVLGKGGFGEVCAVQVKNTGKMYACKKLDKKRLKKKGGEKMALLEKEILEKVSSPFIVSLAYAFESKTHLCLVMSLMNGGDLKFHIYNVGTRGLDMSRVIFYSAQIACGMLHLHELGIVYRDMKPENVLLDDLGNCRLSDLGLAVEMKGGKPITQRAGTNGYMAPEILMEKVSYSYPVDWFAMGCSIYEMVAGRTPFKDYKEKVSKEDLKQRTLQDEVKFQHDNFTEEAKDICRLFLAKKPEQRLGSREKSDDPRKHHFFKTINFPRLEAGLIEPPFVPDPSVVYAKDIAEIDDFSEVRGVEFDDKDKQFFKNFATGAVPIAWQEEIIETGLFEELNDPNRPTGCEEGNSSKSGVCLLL
Test: Kinase Profiling Assay
Format: biochemical
Conditions: 100 μM peptide
measurement_label: GRK7(h) % activity (%)

query_sequence | target_entity | reported
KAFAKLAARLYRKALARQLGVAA [MMI-0400] | GRK7(h) (Homo sapiens) | 100
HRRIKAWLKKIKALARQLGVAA (Mammalian) [MMI-0500] | GRK7(h) (Homo sapiens) | 93
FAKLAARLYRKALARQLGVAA [MMI-0300] | GRK7(h) (Homo sapiens) | 122
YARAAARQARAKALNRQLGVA (Mammalian) [MMI-0200] | GRK7(h) (Homo sapiens) | 124

====

Target: IGF-1R(h), activated (Homo sapiens)
Construct: purchased Millipore
Sequence (P08069 959-1367 limits assumed): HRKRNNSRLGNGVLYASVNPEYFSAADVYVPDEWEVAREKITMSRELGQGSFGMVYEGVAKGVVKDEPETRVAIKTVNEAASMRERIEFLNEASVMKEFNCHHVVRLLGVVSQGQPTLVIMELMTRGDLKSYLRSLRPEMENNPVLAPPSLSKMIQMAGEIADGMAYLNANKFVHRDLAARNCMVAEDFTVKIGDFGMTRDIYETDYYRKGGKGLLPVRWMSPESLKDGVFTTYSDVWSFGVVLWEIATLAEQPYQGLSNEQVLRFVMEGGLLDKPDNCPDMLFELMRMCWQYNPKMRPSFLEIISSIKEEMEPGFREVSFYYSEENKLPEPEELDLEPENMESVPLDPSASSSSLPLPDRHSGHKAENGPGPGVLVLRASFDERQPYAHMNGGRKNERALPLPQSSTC
Test: Kinase Profiling Assay
Assay type: biochemical
Conditions: 100 μM peptide
Procedure: Every kinase activity measurement was conducted in duplicate. In addition to determining the IC50 of the compound, the specificity of MK2 inhibitory peptides was assessed by examining activities of all 266 human kinases available for testing in the Millipore kinase profiling service (Table 1).
Measured IGF-1R(h), activated % activity, listed per entry for reference.

query_sequence | IGF-1R(h), activated % activity
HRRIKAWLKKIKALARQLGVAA (Mammalian) [MMI-0500] | 45%
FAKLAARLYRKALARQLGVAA [MMI-0300] | 80%
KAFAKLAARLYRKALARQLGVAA [MMI-0400] | 77%
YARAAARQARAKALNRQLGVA (Mammalian) [MMI-0200] | 94%

====

Measured CDK5/p35(h) % activity, listed per entry for reference.
Biological target: CDK5/p35(h) (Homo sapiens, UniProt Q00535)
Sequence (Q00535 whole entry): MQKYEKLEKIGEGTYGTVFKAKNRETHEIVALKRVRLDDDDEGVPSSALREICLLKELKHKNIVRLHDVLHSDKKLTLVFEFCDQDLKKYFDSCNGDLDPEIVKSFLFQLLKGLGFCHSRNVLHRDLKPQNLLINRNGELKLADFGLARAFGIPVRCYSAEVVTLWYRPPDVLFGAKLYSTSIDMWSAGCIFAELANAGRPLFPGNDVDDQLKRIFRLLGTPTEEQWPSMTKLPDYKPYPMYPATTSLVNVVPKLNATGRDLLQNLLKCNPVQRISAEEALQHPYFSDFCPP
Sequence (Q15078 2-307 partner limits assumed): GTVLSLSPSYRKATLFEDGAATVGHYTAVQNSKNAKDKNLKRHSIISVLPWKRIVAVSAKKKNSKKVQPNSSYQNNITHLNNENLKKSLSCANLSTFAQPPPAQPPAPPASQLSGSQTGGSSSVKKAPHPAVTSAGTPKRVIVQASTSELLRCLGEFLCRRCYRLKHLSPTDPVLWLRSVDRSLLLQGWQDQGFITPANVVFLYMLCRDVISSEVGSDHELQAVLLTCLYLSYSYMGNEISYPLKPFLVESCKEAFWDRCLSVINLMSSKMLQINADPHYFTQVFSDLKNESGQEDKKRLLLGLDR
Assay: Kinase Profiling Assay
Type: biochemical
Settings: 100 μM peptide
Procedure: Every kinase activity measurement was conducted in duplicate. In addition to determining the IC50 of the compound, the specificity of MK2 inhibitory peptides was assessed by examining activities of all 266 human kinases available for testing in the Millipore kinase profiling service (Table 1).

query_sequence | CDK5/p35(h) % activity [%]
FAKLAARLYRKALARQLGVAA [MMI-0300] | 79
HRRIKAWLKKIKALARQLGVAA (Mammalian) [MMI-0500] | 59
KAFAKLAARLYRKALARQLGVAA [MMI-0400] | 76
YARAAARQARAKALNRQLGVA (Mammalian) [MMI-0200] | 92
